Assay System: Cyclin-dependent kinase 5/CDK5 activator 1 (Homo sapiens)
Sequence (Q00535 whole entry): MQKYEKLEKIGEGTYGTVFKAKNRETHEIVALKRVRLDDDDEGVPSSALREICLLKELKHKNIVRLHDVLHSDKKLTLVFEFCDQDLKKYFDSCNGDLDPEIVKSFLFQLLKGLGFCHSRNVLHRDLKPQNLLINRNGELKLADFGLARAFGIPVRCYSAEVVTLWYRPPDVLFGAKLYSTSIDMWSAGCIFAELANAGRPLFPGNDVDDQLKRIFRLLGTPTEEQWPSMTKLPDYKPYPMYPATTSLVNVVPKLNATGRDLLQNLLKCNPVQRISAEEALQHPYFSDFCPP
Sequence (Q15078 whole entry, further chain): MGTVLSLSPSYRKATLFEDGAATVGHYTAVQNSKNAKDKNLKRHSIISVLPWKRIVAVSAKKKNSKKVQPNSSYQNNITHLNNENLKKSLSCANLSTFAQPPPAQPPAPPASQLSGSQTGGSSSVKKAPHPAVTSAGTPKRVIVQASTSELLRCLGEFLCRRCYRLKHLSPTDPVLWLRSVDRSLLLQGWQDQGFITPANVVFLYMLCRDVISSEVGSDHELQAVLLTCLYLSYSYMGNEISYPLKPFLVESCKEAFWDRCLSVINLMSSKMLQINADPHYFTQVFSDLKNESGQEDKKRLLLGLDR
Method Description: Inhibition of human cdk5/p25 by SPA
Decision: IC50 beneath 400 nM gives 1; IC50 meeting or exceeding 400 nM gives -1.

Exam item: For this compound, is IC50 lower than 400 nM? CC(=O)NNC(=O)CSc1nnc(Cc2csc(NC(=O)CCl)n2)n1NC(=O)c1ccccc1
Marked response: 1

Exam item: Take the compound CC(=O)Nn1c(Cc2csc(NC(=O)CCl)n2)nnc1SCC(=O)NNC(=O)c1ccccc1 and say whether its IC50 is less than 400 nM.
Marked response: 1

Exam item: Bench note: check whether CC(=O)Nn1c(Cc2csc(NC(=O)c3ccccc3)n2)nnc1SCc1nnc(S)n1N shows IC50 below 400 nM
Marked response: -1

Exam item: Would you kindly verify if IC50 of O=C(CSc1nnc(Cc2csc(NC(=O)c3ccccc3)n2)n1NC(=O)c1ccc(Cl)cc1)NNC(=O)c1ccccc1 is strictly less than 400 nM?
Marked response: -1

Exam item: Confirm or reject: IC50 of COC(=O)CSc1nnc(Cc2csc(NC(=O)c3ccccc3)n2)n1NC(=O)c1ccc(Cl)cc1 lies strictly below 400 nM
Marked response: 1

Exam item: # check: IC50 < 400 nM for Nn1c(Cc2csc(NC(=O)c3ccccc3)n2)n[nH]c1=S
Marked response: -1

Exam item: I wonder whether COC(=O)CSc1nnc(Cc2csc(NCCC(=O)O)n2)n1NC(C)=O has IC50 below 400 nM. Can you tell?
Marked response: -1

Exam item: Here's an entry: CC(=O)Nc1nc(Cc2nnc(SCC(=O)NN)n2NC(=O)c2ccccc2)cs1 . Is its IC50 below 400 nM?
Marked response: 1

Exam item: Lab note: IC50 threshold 400 nM. Does this compound come in strictly under it? O=C(O)CCNc1nc(Cc2nnc(S)n2NC(=O)c2ccccc2)cs1
Marked response: -1

Exam item: Could you please tell me whether IC50 recorded for O=C(O)CCNc1nc(Cc2nnc(SCC(=O)NNC(=O)CCl)n2NC(=O)c2ccc(Cl)cc2)cs1 is less than 400 nM?
Marked response: 1

Exam item: Would you kindly verify if IC50 of CC(=O)Nc1nc(Cc2nnc(SCC(=O)NNC(=O)CCl)n2NC(=O)c2ccccc2)cs1 is strictly less than 400 nM?
Marked response: -1

Exam item: Below 400 nM on IC50? Entry CC(=O)Nc1nc(Cc2nnc(SCSc3nnc(Cc4csc(NC(C)=O)n4)n3NC(C)=O)n2NC(C)=O)cs1
Marked response: -1

Exam item: Could you please tell me whether IC50 recorded for CC(=O)NNC(=O)CSc1nnc(Cc2csc(NCCC(=O)O)n2)n1NC(=O)c1ccc(Cl)cc1 is less than 400 nM?
Marked response: 1

Exam item: Input CC(=O)Nn1c(Cc2csc(NCCC(=O)O)n2)nnc1SCC(=O)NNC(=O)c1ccccc1 ; condition: IC50 strictly below 400 nM. Does it hold?
Marked response: -1

Exam item: Is the reported IC50 for O=C(CSc1nnc(Cc2csc(NC(=O)CCl)n2)n1NC(=O)c1ccccc1)NNC(=O)c1ccccc1 strictly below 400 nM?
Marked response: -1

Exam item: Please state whether IC50 is below 400 nM for CC(=O)Nc1nc(Cc2nnc(S)n2N)cs1
Marked response: 1

Exam item: # TODO verify IC50 < 400 nM strictly for this compound: COC(=O)CSc1nnc(Cc2csc(NC(C)=O)n2)n1NC(=O)c1ccc(Cl)cc1
Marked response: 1

Exam item: Is IC50 strictly under 400 nM for the entry CC(=O)Nc1nc(Cc2nnc(SCc3n[nH]c(=S)n3N)n2NC(=O)c2ccc(Cl)cc2)cs1 ?
Marked response: -1

Exam item: Lab note: IC50 threshold 400 nM. Does this compound come in strictly under it? Nn1c(CSc2nnc(Cc3csc(NC(=O)CCl)n3)n2NC(=O)c2ccc(Cl)cc2)n[nH]c1=S
Marked response: -1

The values you see were collected from ChEMBL document CHEMBL1147182.
